Documented inhibition at 1 µM across a set of compounds
# assay-system: human dopamine D2L receptor (Homo sapiens)
# Sequence (P14416 whole entry): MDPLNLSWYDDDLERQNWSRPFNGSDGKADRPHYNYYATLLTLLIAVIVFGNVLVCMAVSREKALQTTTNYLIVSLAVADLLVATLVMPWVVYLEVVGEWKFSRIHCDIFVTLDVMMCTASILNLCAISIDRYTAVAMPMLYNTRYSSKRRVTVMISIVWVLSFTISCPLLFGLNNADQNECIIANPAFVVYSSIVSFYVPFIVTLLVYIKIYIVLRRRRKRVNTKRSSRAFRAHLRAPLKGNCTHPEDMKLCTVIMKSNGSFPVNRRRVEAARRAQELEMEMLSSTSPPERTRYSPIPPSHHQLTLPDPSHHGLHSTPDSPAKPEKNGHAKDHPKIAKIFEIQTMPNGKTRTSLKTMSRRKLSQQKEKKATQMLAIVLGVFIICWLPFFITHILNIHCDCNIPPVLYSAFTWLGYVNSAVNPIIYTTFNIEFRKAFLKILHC
# protocol-text: Dopamine D2L radioligand binding ([3H]Spiperone)
# reported-conditions: percent inhibition of specific binding; compound at 1 μM; read-out: Inhibition of ligand binding, Dopamine D2L

compound	unit-name	inhibition at 1 µM
C/C(=C\n1c2c(c3ccc(C(F)(F)F)cc31)CN(C)CC2)c1ccc(C)nc1	%	18
C/C(=C\n1c2c(c3cc(Cl)ccc31)CN(C)CC2)c1ccc(Cl)cc1	%	67
COc1ccc2c(c1)c1c(n2/C=C(\C)c2ccncc2)CCN(C)C1	%	57
C/C(=C\n1c2c(c3cc(Cl)c(Cl)cc31)CN(C)CC2)c1ccc(F)cc1	%	95
C/C(=C\n1c2c(c3cc(C)ccc31)CN(C)CC2)c1cc(Cl)cc(Cl)c1	%	40
CN1CCc2c(c3cc(Cl)ccc3n2C/C=C/c2ccncc2)C1	%	10
Cc1ccc2c(c1)c1c(n2CC(O)(c2ccc(F)cc2)C2CCCCC2)CCN(C)C1 (stereo not drawn)	%	12
C/C(=C/n1c2c(c3cc(Cl)ccc31)CN(C)CC2)c1cccc(F)c1	%	48
C/C(=C\n1c2c(c3cc(C)ccc31)CN(C)CC2)c1ccncn1	%	69
C/C(=C\n1c2c(c3c(Cl)c(Cl)ccc31)CN(C)CC2)c1ccc(F)cc1	%	91
CN1CCc2c(c3cccc(Cl)c3n2CC(C)(O)c2ccncc2)C1 (stereo not drawn)	%	8
CN1CCc2c(c3cc(Cl)ccc3n2CC(O)c2cccnc2)C1 (stereo not drawn)	%	4
C/C(=C\n1c2c(c3cc(C)ccc31)CN(C)C(C)C2)c1ccc(C)nc1 (stereo not drawn)	%	-12
CCC(O)(Cn1c2c(c3cc(C)ccc31)CN(C)CC2)c1ccncc1 (stereo not drawn)	%	9
C/C(=C\n1c2c(c3ccc(C(F)(F)F)cc31)CN(C)CC2)c1ccc(F)cc1	%	100
Cc1ccc2c(c1)c1c(n2CC(C)(O)c2ccncc2)CCN(C)C1 (stereo not drawn)	%	7
CN1CCc2c(c3cccc(F)c3n2CC(C)(O)c2ccncc2)C1 (stereo not drawn)	%	-1
C/C(=C\n1c2c(c3cc(C)ccc31)CN(C)CC2)c1cncnc1	%	31
